Tgt: recombinant PfMQO (Plasmodium falciparum)
Sequence (C6KT09 1-521): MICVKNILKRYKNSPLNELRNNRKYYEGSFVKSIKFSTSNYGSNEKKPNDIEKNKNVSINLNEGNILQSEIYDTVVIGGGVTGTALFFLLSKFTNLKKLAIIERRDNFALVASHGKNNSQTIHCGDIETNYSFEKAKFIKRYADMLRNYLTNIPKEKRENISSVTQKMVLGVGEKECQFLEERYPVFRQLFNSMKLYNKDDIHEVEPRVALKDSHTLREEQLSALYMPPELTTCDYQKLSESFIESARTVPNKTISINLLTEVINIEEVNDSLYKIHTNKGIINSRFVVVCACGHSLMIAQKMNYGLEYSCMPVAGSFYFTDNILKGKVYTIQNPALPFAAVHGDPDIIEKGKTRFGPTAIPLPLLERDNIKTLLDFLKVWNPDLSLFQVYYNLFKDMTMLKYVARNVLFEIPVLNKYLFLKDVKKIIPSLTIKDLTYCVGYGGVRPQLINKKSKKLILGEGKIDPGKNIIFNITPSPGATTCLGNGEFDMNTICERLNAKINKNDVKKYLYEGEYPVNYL
Protocol: Recombinant PfMQO activity inhibition assay
Type: biochemical
Condition Details: recombinant PfMQO membrane fraction; listed as ferulenol
Experimental Endpoint: IC50 (nM)
Report the value in nM with no unit label.

Find the recorded IC50 belonging to CC(C)=CCC/C(C)=C/CC/C(C)=C/Cc1c(O)c2ccccc2oc1=O and report it.
170
